Test system: OVCAR-8
Experiment: NCI tumour cell line growth inhibition, 48 h
Active and inactive are the calls of the source. Rule as the data show it: active = GI50 up to about 1.1 µM and inactive = higher.
Task for the reader: assign each of the following molecules its reported GI50.

Name the recorded GI50 for `COC(=O)C(C)(C)[C@@H]1OC(=O)N(S(=O)(=O)c2c(C)cc(C)cc2C)[C@H]1C(C)C` . > 100 µM (inactive)

Name the recorded GI50 for `CC(C)(C)[C@H]1NC(=O)CN1C(=O)OCc1ccccc1` . > 100 µM (inactive)

Name the recorded GI50 for `N#CCCN(CCN(CCC#N)C(=O)Nc1ccccc1)C(=O)Nc1ccccc1` . 57.5 µM (inactive)

Name the recorded GI50 for `O=C1c2ccccc2C(=O)c2[nH]c(=O)c(/C=N/Nc3ccc([N+](=O)[O-])cc3)nc21` . 15.8 µM (inactive)

Name the recorded GI50 for COc1ccc(/N=N/C(=O)NC(CC(C)C)C(N)=O)cc1 (stereo not given) . 36.9 µM (inactive)

Name the recorded GI50 for CCOc1cc(C2SCC(=O)N2c2ccc3c(c2)Oc2c(Cl)c4c(c(Cl)c2=N3)Oc2cc(N3C(=O)CSC3c3ccc(O)c(OCC)c3)ccc2N=4)ccc1O (stereo not given) . 32.7 µM (inactive)

Name the recorded GI50 for `COc1ccc(P2(=S)OC(C)(C)C(C)(C)O2)cc1` . > 100 µM (inactive)

Name the recorded GI50 for `COc1cc(OC)c2c(C)cc(=O)oc2c1` . 55.7 µM (inactive)

Name the recorded GI50 for CC(C)c1cc(C(C)C)c(P2(=O)CC3C(Cl)(Cl)C3(C)C2)c(C(C)C)c1 (stereo not given) . 7.67 µM (inactive)

Name the recorded GI50 for `NS(=O)(=O)c1cc2c(cc1Cl)N=C(CCC(=O)O)NS2(=O)=O` . > 100 µM (inactive)

Name the recorded GI50 for COC1OC2COC1(OC)C1OC(C)(C)OC21 (stereo not given) . > 100 µM (inactive)

Name the recorded GI50 for COC(=O)C1CCC(=O)C(Sc2ccccc2)C1 (stereo not given) . > 100 µM (inactive)

Name the recorded GI50 for CC(C)CC(NC(=O)OC(C)(C)C)C(=O)Nc1ccc(Nc2nc(F)nc(-c3c4ccccc4cn3C)n2)cc1 (stereo not given) . 98.6 µM (inactive)

Name the recorded GI50 for COc1nc(NC2OC(COC(C)=O)C(OC(C)=O)C(OC(C)=O)C2OC(C)=O)c(-c2csc(N)n2)c(=O)n1C (stereo not given) . 31.8 µM (inactive)

Name the recorded GI50 for `COc1ccc(/C=C/c2cnc3ccccc3n2)cc1OC` . 41.7 µM (inactive)

Name the recorded GI50 for `CCCNC(=S)N/N=C/c1cccc(C)n1` . 28 µM (inactive)

Name the recorded GI50 for `O=C(O[C@@H](/C=C/c1ccccc1)P1(=O)N(Cc2ccccc2)[C@@H]2CCCC[C@H]2N1Cc1ccccc1)c1ccccc1` . 3.63 µM (inactive)

Name the recorded GI50 for CNC(C)Cc1ccccc1O (stereo not given) . > 100 µM (inactive)

Name the recorded GI50 for `Cc1ccc(/N=N/c2ccc(N(CCC#N)CCC#N)cc2C)c(Br)c1` . 49.3 µM (inactive)

Name the recorded GI50 for `Cc1ccc(NC(=O)CCC(CC(=O)C(C)(C)C)=NNC(=O)C(=O)NN)cc1C` . > 100 µM (inactive)

---

Task for the reader: assign each of the following compounds its reported GI50.
Tested on: SNB-19
Test: NCI tumour cell line growth inhibition, 48 h
Active and inactive are the calls of the source. No stated cut-off is given here; in the data, active = GI50 up to about 1.1 µM and inactive = higher.

Name the recorded GI50 for `COc1cc2c(cc1OC)C(=O)N(NC1=NCCN1)C2=O` . > 100 µM (inactive)

Name the recorded GI50 for Oc1cc(O)c2c(c1)O[C@H](c1cc(O)c(O)c(O)c1)[C@H](O)C2 [EPIGALLOCATECHIN] . > 100 µM (inactive)

Name the recorded GI50 for `N#Cc1c(N2CCN(c3ccc([N+](=O)[O-])cc3)CC2)[n+]([O-])c2ccc(-c3ccc([N+](=O)[O-])cc3)cc2[n+]1[O-]` . 9.18 µM (inactive)

Name the recorded GI50 for `COc1ccc2c(c1)OC[C@@H]1c3cc(O)c(OCc4ccccc4)cc3O[C@H]21` . 46.8 µM (inactive)

Name the recorded GI50 for `Cc1ccc(C(=O)/C=C(\O)C(=O)NN=C(c2ccccc2)c2ccccc2)cc1` . 58.9 µM (inactive)

Name the recorded GI50 for `N/C(=N\O)N/N=C/c1cc2c(cc1Cl)OCO2` . > 25.8 µM (inactive)

Name the recorded GI50 for `COc1ccc2c(c1)[n+]([O-])c(C(C)=O)c(C)[n+]2[O-]` . > 100 µM (inactive)

Name the recorded GI50 for CN(C)CC1CCC/C(=C\c2ccccc2)C1=O (centres undefined) . 16.2 µM (inactive)

Name the recorded GI50 for COc1ccc(C2CC(c3c(O)ccc4ccccc34)=NN2c2ccc([N+](=O)[O-])cc2[N+](=O)[O-])cc1OC (centres undefined) . 15.3 µM (inactive)

---

Tested on: LOX IMVI
Assay: NCI tumour cell line growth inhibition, 48 h
Calls of active or inactive are those of the source. No stated cut-off is given here; in the data, active = GI50 up to about 1.1 µM and inactive = higher.
READOUT_KIND: GI50

Name the recorded GI50 for COCC1OC(N2C(=O)NC(=O)[C@@H]3C=C4CCCCC4=C[C@@H]32)C(OC)C1OC (stereo not given in full) . > 100 µM (inactive)

Name the recorded GI50 for `COc1cccc(CCCNC(=O)Cc2cc(OC)c(OC)cc2CO)c1` . > 100 µM (inactive)

Name the recorded GI50 for `OCCNCCN1CCN(CCCN2c3ccccc3Sc3ccc(C(F)(F)F)cc32)CC1` . 14.5 µM (inactive)

Name the recorded GI50 for `C[C@]12CC[C@H](O)C=C1CC[C@@H]1[C@@H]2CC[C@]2(C)C(=N/O)/C(=C/c3ccncc3)C[C@@H]12` . 11.5 µM (inactive)

Name the recorded GI50 for `O=C1c2ccccc2C(=O)c2c(NC3CCCCC3)ccc(Nc3ccc(S(=O)(=O)O)cc3)c21` . 32.7 µM (inactive)

---

System: SW-620
Assay: NCI tumour cell line growth inhibition, 48 h
Calls of active or inactive are those of the source. Cut-off read from the data, not from the text of the source: active = GI50 up to about 1.1 µM and inactive = higher.
Reply using exactly one outcome from True for active, False for inactive

Which outcome did this test record for the compound `CCN(CC)CCn1nc2c3c(c(NCCN)ccc31)Sc1cc(O)ccc1-2` ? True

Which outcome did this test record for the compound Clc1cc(Cl)cc(C2SCc3nc4ccccc4n32)c1 (configuration not stated) ? False

Which outcome did this test record for the compound `Cc1ccc2ccc(=O)oc2c1` ? False

Which outcome did this test record for the compound CN(CC(=O)O)c1ncc2c(n1)-c1ccccc1OC2c1ccccc1 (configuration not stated) ? False

Which outcome did this test record for the compound `CC1(C)O/C(=C\c2ccccc2)C(=O)/C(=C/c2ccccc2)O1` ? False

Which outcome did this test record for the compound COC(=O)CCC(C)[C@H]1CCC2C3C(C[C@H](OC(C)=O)[C@@]21C)[C@@]1(C)CCC2(C[C@H]1C[C@H]3OC(C)=O)OOC1(CCCC1)OO2 (some centres not stated) ? False

Which outcome did this test record for the compound `CCc1nc2c(n1CC)C(=O)c1ccccc1C2=O` ? False

Which outcome did this test record for the compound `COc1ccc2c(c1)[n+]([O-])c(C(C)=O)c(C)[n+]2[O-]` ? False

Which outcome did this test record for the compound Cc1c(/N=N/c2ccccc2)c(C)n(C2OC(CO)C(O)C(O)C2O)c(=S)c1C#N (configuration not stated) ? False

Which outcome did this test record for the compound `COC(=O)C(C)(C)[C@@H]1OC(=O)N(S(=O)(=O)c2c(C)cc(C)cc2C)[C@H]1C(C)C` ? False

Which outcome did this test record for the compound `OC(c1ccc2c(c1)OCO2)c1ccc2c(c1)OCO2` ? False

Which outcome did this test record for the compound `O=C1C(Br)=C(Br)C(=O)c2ccc(=O)ccc21` ? False

Which outcome did this test record for the compound COC(=O)C1=NC(=S)NC(c2ccccc2)C1c1nc2ccccc2o1 (configuration not stated) ? False

Which outcome did this test record for the compound O=P(O)(O)CC1OC(CO)C(O)C1O (configuration not stated) ? False

Which outcome did this test record for the compound NC(=O)N/N=C(\CC1OC(=O)c2ccccc21)c1ccco1 (configuration not stated) ? False

Which outcome did this test record for the compound `CCOC(=O)/C(C#N)=C1/Sc2c(ncn(/N=C/c3ccc(OC)cc3)c2=O)N1c1ccccc1` ? False

Which outcome did this test record for the compound `COc1cc(=O)oc(/C=C/C=O)c1C` ? False

Which outcome did this test record for the compound `Clc1cccc(/C=c2\nc(-c3ccccc3)n3c2nc2ccccc23)c1` ? False

Which outcome did this test record for the compound `COc1cc(OC)c2c(C)cc(=O)oc2c1` ? False

Which outcome did this test record for the compound `CC(C)[C@H]1CO[C@@H]2O[C@H](C)CC(=O)N21` ? False

Which outcome did this test record for the compound COc1nc(NC2OC(COC(C)=O)C(OC(C)=O)C(OC(C)=O)C2OC(C)=O)c(-c2csc(N)n2)c(=O)n1C (configuration not stated) ? False

Which outcome did this test record for the compound `CN(C)CC(CO)(CN(C)C)CN(C)C` ? False

Which outcome did this test record for the compound `CCOP(=O)(OCC)/C(C#N)=C\c1cccc2ccccc12` ? False

Which outcome did this test record for the compound `CCSC1=N/C(=C\c2ccco2)C(Cl)=N1` ? False

Which outcome did this test record for the compound `CCOC(=O)c1cn2c(n1)sc1cc(Cl)cc(Cl)c12` ? False

Which outcome did this test record for the compound FC(F)(F)c1ccc2c(c1)nc1n2C(c2c(Cl)cccc2Cl)SC1 (configuration not stated) ? False

Which outcome did this test record for the compound O=c1/c(=C\c2ccccc2)sc2n1C(c1ccccc1)C1(O)CCCCC1N=2 (configuration not stated) ? False

Which outcome did this test record for the compound `O=C(O[C@@H](/C=C/c1ccccc1)P1(=O)N(Cc2ccccc2)[C@@H]2CCCC[C@H]2N1Cc1ccccc1)c1ccccc1` ? False

Which outcome did this test record for the compound `CN(N=O)N1C(=O)SCC(c2ccccc2)(c2ccccc2)C1=O` ? False

Which outcome did this test record for the compound CCCCCCCCCCC(C)CCCCCCC(=O)OCC(COP(=O)([O-])OCC[N+](C)(C)C)OC(=O)CCCCCCC(C)CCCCCCCCCC (configuration not stated) ? False

Which outcome did this test record for the compound `Cc1ccc(O)c(C(c2ccc([N+](=O)[O-])cc2)c2cc(C)ccc2O)c1` ? False

Which outcome did this test record for the compound COc1cc(C2c3cc4c(cc3OC(NC3CCCCC3)C2C)OCO4)cc(OC)c1OC (configuration not stated) ? True

Which outcome did this test record for the compound NCc1ccc(C(=O)O)cc1 [AMINOMETHYLBENZOIC ACID] ? False

Which outcome did this test record for the compound COc1ccc(/N=N/C(=O)NC(CC(C)C)C(N)=O)cc1 (configuration not stated) ? False

Which outcome did this test record for the compound CC(C)CC(NC(=O)OC(C)(C)C)C(=O)Nc1ccc(Nc2nc(F)nc(-c3c4ccccc4cn3C)n2)cc1 (configuration not stated) ? False

Which outcome did this test record for the compound O=C1O[C@H]2C3C4CCC(C4[C@@H]2I)[C@H]13 (some centres not stated) ? False

Which outcome did this test record for the compound `O=C(CCCN1CCC2(CC1)CC(=O)N(N1CCCCCC1)C2=O)c1ccc(F)cc1` ? False

Which outcome did this test record for the compound CCN1CC2=C(OC(N)=C(C#N)C2c2ccc(Cl)cc2)/C(=C/c2ccc(Cl)cc2)C1 (configuration not stated) ? False

Which outcome did this test record for the compound `COc1ccc(P2(=S)OC(C)(C)C(C)(C)O2)cc1` ? False

Which outcome did this test record for the compound `Cc1cc2ccccc2c[n+]1CC(O)C[n+]1cc2ccccc2cc1C` ? False

Which outcome did this test record for the compound `Cc1cc(N(CCC#N)CCC#N)ccc1/C=C1\N=C(c2cc([N+](=O)[O-])ccc2Cl)N(NC(=O)c2ccc(/N=C\c3ccc(N(CCC#N)S(C)(=O)=O)cc3C)cc2)C1=O` ? False

Which outcome did this test record for the compound `O=C1Oc2ccccc2C(=O)/C1=C\NC(=S)c1ccncc1` ? False
